# Target: T1, human IL-36R on cells (human, UniProt Q9HB29 20-575)
# T1 sequence (looked up): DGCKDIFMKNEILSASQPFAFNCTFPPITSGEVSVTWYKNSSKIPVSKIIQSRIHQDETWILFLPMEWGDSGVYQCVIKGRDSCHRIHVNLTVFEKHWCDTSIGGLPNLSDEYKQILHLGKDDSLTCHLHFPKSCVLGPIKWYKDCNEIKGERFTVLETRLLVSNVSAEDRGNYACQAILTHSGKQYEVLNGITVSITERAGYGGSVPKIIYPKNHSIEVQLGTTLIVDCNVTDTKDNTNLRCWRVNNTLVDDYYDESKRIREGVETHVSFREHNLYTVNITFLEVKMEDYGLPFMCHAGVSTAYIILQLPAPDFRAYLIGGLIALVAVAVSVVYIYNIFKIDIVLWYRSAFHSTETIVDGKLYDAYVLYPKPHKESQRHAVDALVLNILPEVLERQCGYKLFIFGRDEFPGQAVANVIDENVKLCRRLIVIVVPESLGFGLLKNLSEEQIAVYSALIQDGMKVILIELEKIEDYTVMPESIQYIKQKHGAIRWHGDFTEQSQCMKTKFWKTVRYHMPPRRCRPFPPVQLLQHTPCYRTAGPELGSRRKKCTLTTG
# Method: cell-based or functional assay
Observation Type: IC90, IL-8 release, human primary keratinocytes (NHK), trun-IL-36a (nM)
Express it in nM; write the number only.

Problem: Fill blank: measured IC90, IL-8 release, human primary keratinocytes (NHK), trun-IL-36a of the binder antibody 73C5 (antibody, V domains shown, Mouse monoclonal from hybridoma; also called 73C5C10; Mouse 73C5) VH: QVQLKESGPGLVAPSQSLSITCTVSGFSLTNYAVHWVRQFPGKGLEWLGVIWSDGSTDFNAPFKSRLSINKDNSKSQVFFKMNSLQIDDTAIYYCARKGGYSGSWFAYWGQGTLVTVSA VL: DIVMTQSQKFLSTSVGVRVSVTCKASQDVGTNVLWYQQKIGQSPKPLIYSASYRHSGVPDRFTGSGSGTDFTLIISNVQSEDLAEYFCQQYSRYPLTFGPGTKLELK is ____.
Solution: 20.8
